# System: Dugesia japonica
# PROTOCOL_SUMMARY: pharynx extrusion incidence (% planarians (vehicle-normalised)); higher = higher incidence or increase relative to vehicle control
# CONDITION_SET: exposure time: 15 min to 3 h acute
Counter-ions that a name gives are not always drawn.
Exercise: for every item that follows, state its recorded pharynx extrusion incidence.
Returns: the value as a bare number; no unit string appended.

Value of pharynx extrusion incidence reported for the compound CNCCC(Oc1ccc(C(F)(F)F)cc1)c1ccccc1 (configuration not stated) [fluoxetine hydrochloride] (3.16 µM) is 0

Looking up O=C1CCc2ccc(OCCCCN3CCN(c4cccc(Cl)c4Cl)CC3)cc2N1 [aripiprazole] (1 µM) , I see its pharynx extrusion incidence listed as 0

Recorded result, O=C(CCCN1CC=C(n2c(=O)[nH]c3ccccc32)CC1)c1ccc(F)cc1 [droperidol] (100 µM) , pharynx extrusion incidence: 0

In plain terms, CC(NC(C)(C)C)C(=O)c1cccc(Cl)c1 (configuration not stated) [bupropion] (100 µM) has a documented pharynx extrusion incidence of 0

Note to self: pharynx extrusion incidence recorded for CN(C)CCC[C@@]1(c2ccc(F)cc2)OCc2cc(C#N)ccc21 [escitalopram] (100 µM) was 0

Noted for CN1CCN(C2=Nc3cc(Cl)ccc3Nc3ccccc32)CC1 [clozapine] (1 µM) : its pharynx extrusion incidence reads 0

Data point: O=C(CCCN1CCC(O)(c2ccc(Cl)cc2)CC1)c1ccc(F)cc1 [haloperidol] (100 µM) ; pharynx extrusion incidence = 0

Entry Cc1ncc2n1-c1ccc(Cl)cc1C(c1ccccc1F)=NC2 [midazolam] (100 µM) ; pharynx extrusion incidence = 4.17

pharynx extrusion incidence reading for CC(NC(C)(C)C)C(=O)c1cccc(Cl)c1 (configuration not stated) [bupropion] (10 µM) : 0

Short answer for O=C1CC2(CCCC2)CC(=O)N1CCCCN1CCN(c2ncccn2)CC1 [buspirone] (1 µM) : pharynx extrusion incidence was 0

Record O=C(CCCN1CCC(O)(c2ccc(Cl)cc2)CC1)c1ccc(F)cc1 [haloperidol] (10 µM) , field pharynx extrusion incidence: 0

Entry under test: CC(NC(C)(C)C)C(=O)c1cccc(Cl)c1 (configuration not stated) [bupropion] (316 µM) . Its pharynx extrusion incidence was 0

pharynx extrusion incidence reported for this compound CN1CCN(CCCN2c3ccccc3Sc3ccc(Cl)cc32)CC1 [prochloroperazine] (3.16 µM) : 0

# pharynx extrusion incidence (compound: CN[C@H]1CC[C@@H](c2ccc(Cl)c(Cl)c2)c2ccccc21 [sertraline hydrochloride] (3.16 µM) ) is 0

The compound listed as CN(C)CCCC1(c2ccc(F)cc2)OCc2cc(C#N)ccc21 (configuration not stated) [citalopram hydrobromide] (10 µM) shows pharynx extrusion incidence equal to 0

For this compound ( CN(C)CCCC1(c2ccc(F)cc2)OCc2cc(C#N)ccc21 (configuration not stated) [citalopram hydrobromide] (31.6 µM) ), measured pharynx extrusion incidence is 0

For Cc1cc2c(s1)Nc1ccccc1N=C2N1CCN(C)CC1 [olanzapine] (3.16 µM) the compound record lists pharynx extrusion incidence as 0

// data source = the supplement of paper PMC11781733
